- measurement-target: T1, rat NMUR1-ATG (rat, UniProt Q9JJI5 1-425)
- T1 sequence (looked up): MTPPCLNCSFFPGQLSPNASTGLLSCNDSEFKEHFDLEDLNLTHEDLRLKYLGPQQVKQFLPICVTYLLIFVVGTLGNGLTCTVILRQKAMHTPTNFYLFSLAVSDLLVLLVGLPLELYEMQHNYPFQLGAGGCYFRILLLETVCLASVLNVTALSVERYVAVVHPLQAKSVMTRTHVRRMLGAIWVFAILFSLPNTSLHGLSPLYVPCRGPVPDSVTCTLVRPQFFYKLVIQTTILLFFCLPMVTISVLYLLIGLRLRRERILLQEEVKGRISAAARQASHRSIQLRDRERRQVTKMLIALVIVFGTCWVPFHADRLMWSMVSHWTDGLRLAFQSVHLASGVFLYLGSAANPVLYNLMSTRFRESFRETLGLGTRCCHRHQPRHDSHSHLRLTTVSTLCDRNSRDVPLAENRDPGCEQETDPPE
- method-description: cell-based or functional assay
No end group written: not given here. (PEG)2 40 kDa = branched PEG of 40 kDa linked via the Cys side-chain thiol (code C2 = Cys(PEG)2 40 kDa); Cholesteroyl = cholesterol linked to a cysteine residue via the side-chain thiol
Entries and their % Activity (FLIPR) values follow.
Express the result in % but write the number alone.

Reference set, count: 5
{"binder": "Ac-C((PEG)2 40 kDa)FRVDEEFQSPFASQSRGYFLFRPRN-NH2 [NMU9]", "% Activity (FLIPR), %": 100}
{"binder": "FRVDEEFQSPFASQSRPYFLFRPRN-NH2 [NMU4]", "% Activity (FLIPR), %": 100}
{"binder": "Ac-C((PEG)2 40 kDa)FQSPFASQSRGYFLFRPRN-NH2 [NMU20]", "% Activity (FLIPR), %": 100}
{"binder": "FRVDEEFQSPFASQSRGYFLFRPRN-NH2 (not fully specified (N-terminus)) [NMU1]", "% Activity (FLIPR), %": 59.3}
{"binder": "Ac-C(Cholesteroyl)GYFLFRPRN-NH2 [NMU11]", "% Activity (FLIPR), %": 50.9}

--- query ---
The recorded % Activity (FLIPR) for entry GYFLFRPRN-NH2 [NMU3] equals 100

Origin of the recorded values: patent US20070244048A1
